Test system: HOP-62 complex spheroids with HUVEC/MSC, viability
ASSAY_INFO: Anticancer human tumor HOP-62 cell line growth inhibition [RAS]
SETTINGS: second compound 0.00949 µM; first compound 0.003 µM; stronger effect = lower value
# viability, T/C per record follows
REPORTED_ENDPOINT: viability, T/C

# COMPOUND, REPORTED_ENDPOINT, READOUT_VALUE
rows = [
    ("CCc1c2c(nc3ccc(O)cc13)-c1cc3c(c(=O)n1C2)COC(=O)[C@]3(O)CC + CCn1c(-c2cc(N3CCN(C)CC3)cnc2C(C)OC)c2c3cc(ccc31)-c1csc(n1)CC(NC(=O)C1CC1C)C(=O)N1CCCC(N1)C(=O)OCC(C)(C)C2", "viability, T/C", "25.2%"),
    ("CC1(C)CCC(Nc2ncc(C(F)(F)F)c(-c3c[nH]c4c(P(C)(C)=O)c(C#N)ccc34)n2)CN1 (centres undefined) + CCn1c(-c2cc(N3CCN(C)CC3)cnc2C(C)OC)c2c3cc(ccc31)-c1csc(n1)CC(NC(=O)C1CC1C)C(=O)N1CCCC(N1)C(=O)OCC(C)(C)C2", "viability, T/C", "52.8%"),
    ("CC1(C)CCC(Nc2ncc(C(F)(F)F)c(-c3c[nH]c4c(P(C)(C)=O)c(C#N)ccc34)n2)CN1 (centres undefined) + CCn1c(-c2cccnc2C(C)OC)c2c3cc(ccc31)N1CCOC(CC(NC(=O)C(C(C)C)N(C)C(=O)C3(F)CCN(C(=O)C#CC(C)(C)N(C)C)CC3)C(=O)N3CCCC(N3)C(=O)OCC(C)(C)C2)C1", "viability, T/C", "60.6%"),
    ("CCc1c2c(nc3ccc(O)cc13)-c1cc3c(c(=O)n1C2)COC(=O)[C@]3(O)CC + CCn1c(-c2cccnc2C(C)OC)c2c3cc(ccc31)N1CCOC(CC(NC(=O)C(C(C)C)N(C)C(=O)C3(F)CCN(C(=O)C#CC(C)(C)N(C)C)CC3)C(=O)N3CCCC(N3)C(=O)OCC(C)(C)C2)C1", "viability, T/C", "13.7%"),
]

* * *

Test system: HOP-62 complex spheroids with HUVEC/MSC, viability
ASSAY_INFO: Anticancer human tumor HOP-62 cell line growth inhibition [RAS];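 also: spheroids exposed to agents for seven days before readout; 100% = DMSO vehicle control viability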
SETTINGS: second compound 0.0949 µM; first compound 3.16 µM; stronger effect = lower value
# viability, T/C per record follows

# COMPOUND, viability, T/C [%]
rows = [
    ("CC1(O)CCCC1n1c(=O)c(C(F)F)cc2cnc(NC3CCN(S(C)(=O)=O)CC3)nc21 (configuration not stated) + CCn1c(-c2cc(N3CCN(C)CC3)cnc2C(C)OC)c2c3cc(ccc31)-c1csc(n1)CC(NC(=O)C1CC1C)C(=O)N1CCCC(N1)C(=O)OCC(C)(C)C2", 19.5),
    ("CC1(O)CCCC1n1c(=O)c(C(F)F)cc2cnc(NC3CCN(S(C)(=O)=O)CC3)nc21 (configuration not stated) + CCn1c(-c2cccnc2C(C)OC)c2c3cc(ccc31)N1CCOC(CC(NC(=O)C(C(C)C)N(C)C(=O)C3(F)CCN(C(=O)C#CC(C)(C)N(C)C)CC3)C(=O)N3CCCC(N3)C(=O)OCC(C)(C)C2)C1", 43.4),
]

* * *

System: HOP-62 complex spheroids with HUVEC/MSC, viability
ASSAY_INFO: Anticancer human tumor HOP-62 cell line growth inhibition [RAS]; active = viability on the fitted dose curve at most 10% of control; inactive = the rest;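 also: spheroids exposed to agents for seven days before readout; 100% = DMSO vehicle control viability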
SETTINGS: second compound 0.0316 µM; first compound 0.003 µM
Outcomes: 1.0 = active, 0.0 = inactive

# MOLECULE, EXPERIMENTAL_TARGET, CLASS_LABEL
measured = [
    ("CCc1c2c(nc3ccc(O)cc13)-c1cc3c(c(=O)n1C2)COC(=O)[C@]3(O)CC + C=CC(=O)N1CCN(c2nc(OCC3CCCN3C)nc3c(F)c(-c4nc(N)cc(C)c4C(F)(F)F)c(Cl)cc23)C(C)C1", "HOP-62 complex spheroids with HUVEC/MSC, viability", 1.0),
    ("CC1(C)CCC(Nc2ncc(C(F)(F)F)c(-c3c[nH]c4c(P(C)(C)=O)c(C#N)ccc34)n2)CN1 (centres undefined) + C=CC(=O)N1CCN(c2nc(OCC3CCCN3C)nc3c(F)c(-c4nc(N)cc(C)c4C(F)(F)F)c(Cl)cc23)C(C)C1", "HOP-62 complex spheroids with HUVEC/MSC, viability", 0.0),
    ("CCc1c2c(nc3ccc(O)cc13)-c1cc3c(c(=O)n1C2)COC(=O)[C@]3(O)CC + C#Cc1c(F)ccc2cc(O)cc(-c3ncc4c(N5CC6CCC(C5)N6)nc(OCC56CCCN5CC(F)C6)nc4c3F)c12", "HOP-62 complex spheroids with HUVEC/MSC, viability", 0.0),
    ("CC1(C)CCC(Nc2ncc(C(F)(F)F)c(-c3c[nH]c4c(P(C)(C)=O)c(C#N)ccc34)n2)CN1 (centres undefined) + C#Cc1c(F)ccc2cc(O)cc(-c3ncc4c(N5CC6CCC(C5)N6)nc(OCC56CCCN5CC(F)C6)nc4c3F)c12", "HOP-62 complex spheroids with HUVEC/MSC, viability", 0.0),
]

* * *

# viability, T/C per record follows
System: HOP-62 complex spheroids with HUVEC/MSC, viability
ASSAY_INFO: Anticancer human tumor HOP-62 cell line growth inhibition [RAS];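 also: spheroids exposed to agents for seven days before readout; 100% = DMSO vehicle control viability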
SETTINGS: second compound 0.316 µM; first compound 0.01 µM; stronger effect = lower value
REPORTED_ENDPOINT: viability, T/C (%)

# COMPOUND, READOUT_VALUE
data = [
    ("CC(C)n1nc(-c2ccc3oc(N)nc3c2)c2c(N)ncnc21 + C=CC(=O)N1CCN(c2nc(OCC3CCCN3C)nc3c(F)c(-c4nc(N)cc(C)c4C(F)(F)F)c(Cl)cc23)C(C)C1", 25.9),
    ("O=C(c1ccc(F)c(F)c1Nc1ccc(I)cc1F)N1CC(O)([C@@H]2CCCCN2)C1 + C#Cc1c(F)ccc2cc(O)cc(-c3ncc4c(N5CC6CCC(C5)N6)nc(OCC56CCCN5CC(F)C6)nc4c3F)c12", 108),
    ("CCN1CCN(Cc2ccc(Nc3ncc(F)c(-c4cc(F)c5nc(C)n(C(C)C)c5c4)n3)nc2)CC1 + C#Cc1c(F)ccc2cc(O)cc(-c3ncc4c(N5CC6CCC(C5)N6)nc(OCC56CCCN5CC(F)C6)nc4c3F)c12", 102),
    ("CC(C)n1nc(-c2ccc3oc(N)nc3c2)c2c(N)ncnc21 + C#Cc1c(F)ccc2cc(O)cc(-c3ncc4c(N5CC6CCC(C5)N6)nc(OCC56CCCN5CC(F)C6)nc4c3F)c12", 63.1),
]

* * *

Tested on: HOP-62 complex spheroids with HUVEC/MSC, viability
ASSAY_INFO: Anticancer human tumor HOP-62 cell line growth inhibition [RAS];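 also: spheroids exposed to agents for seven days before readout; 100% = DMSO vehicle control viability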
SETTINGS: second compound 0.00949 µM; first compound 0.316 µM; stronger effect = lower value
Description: RAS pathway inhibitors in Combinations in Complex Spheroids A high-throughput screen of multi-cell type tumor spheroids was designed to identify active combinations of RAS pathway inhibitors and targeted small molecules. Complex spheroids include a stromal component modeled by human endothelial cells (HUVEC) and fibroblasts modeled by human mesenchymal stem cells (MSCs). […] Compounds. […] If the clinical Cmax for an agent had not been determined, the highest concentration tested was 10 microM. […]
# viability, T/C per record follows

# COMPOUND, EXPERIMENTAL_TARGET, viability, T/C
data = [
    ("CCN1CCN(Cc2ccc(Nc3ncc(F)c(-c4cc(F)c5nc(C)n(C(C)C)c5c4)n3)nc2)CC1 + CCn1c(-c2cccnc2C(C)OC)c2c3cc(ccc31)N1CCOC(CC(NC(=O)C(C(C)C)N(C)C(=O)C3(F)CCN(C(=O)C#CC(C)(C)N(C)C)CC3)C(=O)N3CCCC(N3)C(=O)OCC(C)(C)C2)C1", "HOP-62 complex spheroids with HUVEC/MSC, viability", "88.6%"),
    ("O=C(c1ccc(F)c(F)c1Nc1ccc(I)cc1F)N1CC(O)([C@@H]2CCCCN2)C1 + CCn1c(-c2cc(N3CCN(C)CC3)cnc2C(C)OC)c2c3cc(ccc31)-c1csc(n1)CC(NC(=O)C1CC1C)C(=O)N1CCCC(N1)C(=O)OCC(C)(C)C2", "HOP-62 complex spheroids with HUVEC/MSC, viability", "28.5%"),
    ("Cc1nc(N2CCC3(CC2)COC(C)C3N)c(CO)nc1Sc1ccnc(N)c1Cl (centres undefined) + CCn1c(-c2cc(N3CCN(C)CC3)cnc2C(C)OC)c2c3cc(ccc31)-c1csc(n1)CC(NC(=O)C1CC1C)C(=O)N1CCCC(N1)C(=O)OCC(C)(C)C2", "HOP-62 complex spheroids with HUVEC/MSC, viability", "40.6%"),
    ("CC(Nc1ccc2c(c1)OCCn1cc(N3C(=O)OCC3C(F)F)nc1-2)C(N)=O (centres undefined) + CCn1c(-c2cc(N3CCN(C)CC3)cnc2C(C)OC)c2c3cc(ccc31)-c1csc(n1)CC(NC(=O)C1CC1C)C(=O)N1CCCC(N1)C(=O)OCC(C)(C)C2", "HOP-62 complex spheroids with HUVEC/MSC, viability", "36.1%"),
    ("NC1c2ccccc2OC12CCN(c1cnc3c(N4CCCc5ncccc54)n[nH]c3n1)CC2 (centres undefined) + CCn1c(-c2cc(N3CCN(C)CC3)cnc2C(C)OC)c2c3cc(ccc31)-c1csc(n1)CC(NC(=O)C1CC1C)C(=O)N1CCCC(N1)C(=O)OCC(C)(C)C2", "HOP-62 complex spheroids with HUVEC/MSC, viability", "25%"),
    ("C=CC(=O)N1CCN(c2nc(OCC3CCCN3C)nc3c(F)c(-c4nc(N)cc(C)c4C(F)(F)F)c(Cl)cc23)C(C)C1 (centres undefined) + CCn1c(-c2cccnc2C(C)OC)c2c3cc(ccc31)N1CCOC(CC(NC(=O)C(C(C)C)N(C)C(=O)C3(F)CCN(C(=O)C#CC(C)(C)N(C)C)CC3)C(=O)N3CCCC(N3)C(=O)OCC(C)(C)C2)C1", "HOP-62 complex spheroids with HUVEC/MSC, viability", "91%"),
    ("CC1(O)CCCC1n1c(=O)c(C(F)F)cc2cnc(NC3CCN(S(C)(=O)=O)CC3)nc21 (centres undefined) + CCn1c(-c2cc(N3CCN(C)CC3)cnc2C(C)OC)c2c3cc(ccc31)-c1csc(n1)CC(NC(=O)C1CC1C)C(=O)N1CCCC(N1)C(=O)OCC(C)(C)C2", "HOP-62 complex spheroids with HUVEC/MSC, viability", "57.8%"),
    ("O=C(c1ccc(F)c(F)c1Nc1ccc(I)cc1F)N1CC(O)([C@@H]2CCCCN2)C1 + CCn1c(-c2cccnc2C(C)OC)c2c3cc(ccc31)N1CCOC(CC(NC(=O)C(C(C)C)N(C)C(=O)C3(F)CCN(C(=O)C#CC(C)(C)N(C)C)CC3)C(=O)N3CCCC(N3)C(=O)OCC(C)(C)C2)C1", "HOP-62 complex spheroids with HUVEC/MSC, viability", "36.7%"),
    ("C[C@@H](NC(=O)c1ncnc(N)c1Cl)c1ncc(C(=O)Nc2cc(C(F)(F)F)c(Cl)cn2)s1 + CCn1c(-c2cc(N3CCN(C)CC3)cnc2C(C)OC)c2c3cc(ccc31)-c1csc(n1)CC(NC(=O)C1CC1C)C(=O)N1CCCC(N1)C(=O)OCC(C)(C)C2", "HOP-62 complex spheroids with HUVEC/MSC, viability", "76.4%"),
]

The reported numbers originate from PubChem BioAssay AID2060892.
